Provenance of the data: PubChem BioAssay (EPA / NIEHS)

Assay: ATG_M_19_CIS: Attagene CIS-FACTORIAL HepG2 Assay for M19 Transcription Factor (Internal Marker) (AID 2282939)
Settings: HepG2 Attagene CIS-FACTORIAL M19 internal marker reporter; actives raise or lower the signal
Active and inactive are the calls of the source. Rule for the calls: active = hit-call score of the fitted dose curve at least 0.9, where 1 is the maximum; inactive = score below 0.9.
Outcome codes: active, inactive

[
  {
    "compound": "O=C1CCCCCCCCCCCCCCO1",
    "group": "inactive"
  },
  {
    "compound": "CC(=O)[C@H]1CC[C@H]2[C@@H]3CC=C4C[C@@H](O)CC[C@]4(C)[C@H]3CC[C@]12C",
    "group": "inactive"
  },
  {
    "compound": "CCCCCC(=O)OCCc1ccccc1",
    "group": "inactive"
  },
  {
    "compound": "CN1[C@@H]2CC(OC(=O)[C@H](CO)c3ccccc3)C[C@H]1[C@@H]1O[C@@H]12 (stereo not given in full)",
    "group": "inactive"
  },
  {
    "compound": "O=C(O)CCCCCCCCCCC(=O)O",
    "group": "inactive"
  },
  {
    "compound": "CC(C)C1CCC(O)CC1 (stereo not given)",
    "group": "inactive"
  },
  {
    "compound": "Cc1ccc2ccccc2n1",
    "group": "inactive"
  },
  {
    "compound": "COCCOCCOCCOCCOCCO",
    "group": "inactive"
  },
  {
    "compound": "O=C(O)COCCN1CCN(C(c2ccccc2)c2ccc(Cl)cc2)CC1 (stereo not given)",
    "group": "inactive"
  },
  {
    "compound": "BrC1CCC(Br)C(Br)CCC(Br)C(Br)CCC1Br (stereo not given)",
    "group": "inactive"
  },
  {
    "compound": "Cc1ccc(O)c(C(C)(C)C)c1",
    "group": "active"
  },
  {
    "compound": "CC(C)=CCCC(C)=CCCC(C)=CCO",
    "group": "inactive"
  },
  {
    "compound": "O=[N+]([O-])c1ccc(C=Cc2ccc([N+](=O)[O-])cc2S(=O)(=O)O)c(S(=O)(=O)O)c1",
    "group": "inactive"
  },
  {
    "compound": "O=C1CCc2ccccc2O1",
    "group": "inactive"
  },
  {
    "compound": "O=CCCc1ccccc1",
    "group": "inactive"
  },
  {
    "compound": "COC(C)CCO (stereo not given)",
    "group": "inactive"
  },
  {
    "compound": "Cc1ccc(C(=O)O)o1",
    "group": "inactive"
  },
  {
    "compound": "NC(=O)NC1NC(=O)NC1=O (stereo not given)",
    "group": "inactive"
  },
  {
    "compound": "CCCC(C)C=O (stereo not given)",
    "group": "inactive"
  },
  {
    "compound": "CC(C)(COC(=O)c1ccccc1)COC(=O)c1ccccc1",
    "group": "inactive"
  },
  {
    "compound": "COC(=O)C1=C(C)NC(C)=C(C(=O)OCCN(C)Cc2ccccc2)C1c1cccc([N+](=O)[O-])c1 (stereo not given)",
    "group": "inactive"
  },
  {
    "compound": "CCCCCC(CO)CCC (stereo not given)",
    "group": "inactive"
  },
  {
    "compound": "CCC(O)CO (stereo not given)",
    "group": "inactive"
  },
  {
    "compound": "O=C(O)CCCCC1CCSS1 (stereo not given)",
    "group": "inactive"
  },
  {
    "compound": "CCCCCCCCCCCCN(CCCCCCCCCCCC)CCCCCCCCCCCC",
    "group": "inactive"
  }
]
